Field: GI50. Provide a value for each of the compounds that follow.
Test system: SK-MEL-28
protocolDescription: NCI tumour cell line growth inhibition, 48 h
Activity calls are given as the source filed them. No stated cut-off is given here; in the data, active = GI50 up to about 1.1 µM and inactive = higher.

IN: Notebook entry, SK-MEL-28 assay: GI50 of CC(C)NC1CCCCC2c3ccccc3C12O (configuration not stated) = ?
OUT: > 100 µM (inactive)

IN: Notebook entry, SK-MEL-28 assay: GI50 of O=[N+]([O-])/C(C(Cl)=C(Cl)Cl)=C(\Nc1cccc2ccccc12)n1nnc2ccccc21 = ?
OUT: > 100 µM (inactive)

IN: Notebook entry, SK-MEL-28 assay: GI50 of CN1C(=S)C(c2ccccc2)Sc2ccccc21 (configuration not stated) = ?
OUT: > 100 µM (inactive)

IN: Notebook entry, SK-MEL-28 assay: GI50 of COc1ccccc1/C=N/Nc1nnc2c3ccccc3c3ncccc3c2n1 = ?
OUT: > 100 µM (inactive)

IN: Notebook entry, SK-MEL-28 assay: GI50 of CNc1ccc(C)cc1S(=O)(=O)c1ccccc1[N+](=O)[O-] = ?
OUT: 38.8 µM (inactive)

IN: Notebook entry, SK-MEL-28 assay: GI50 of COCN/C(N)=N/C#N = ?
OUT: > 100 µM (inactive)

IN: Notebook entry, SK-MEL-28 assay: GI50 of CCOC(=O)/C(=C\NCC(OCC)OCC)c1nc2ccccc2[nH]1 = ?
OUT: 26.8 µM (inactive)

IN: Notebook entry, SK-MEL-28 assay: GI50 of CN(C)c1ccc(/C=C2\N=C(c3ccccc3)N(/N=C3\C(=O)Nc4ccccc43)C2=O)cc1 = ?
OUT: > 100 µM (inactive)

IN: Notebook entry, SK-MEL-28 assay: GI50 of Oc1ccc2ccccc2c1CN(Cc1c(O)ccc2ccccc12)C1CCCCC1 = ?
OUT: 22.8 µM (inactive)

IN: Notebook entry, SK-MEL-28 assay: GI50 of Cc1ccc(NC(=O)C(=O)CC(=O)c2c(C)[n+]([O-])c3ccccc3[n+]2[O-])cc1 = ?
OUT: 46.6 µM (inactive)

IN: Notebook entry, SK-MEL-28 assay: GI50 of Cc1ccc(NC(=O)NC(=O)c2ccc([N+](=O)[O-])cc2[N+](=O)[O-])cc1Oc1ncc(Cl)cn1 = ?
OUT: 2.9 µM (inactive)

IN: Notebook entry, SK-MEL-28 assay: GI50 of CN(C(=O)[C@@H](NC(=O)OC(C)(C)C)c1ccccc1)[C@H]1CCCC[C@@H]1N1CCCC1 = ?
OUT: > 100 µM (inactive)

IN: Notebook entry, SK-MEL-28 assay: GI50 of CCOC(=O)C(Cc1ccccc1)NC(=O)c1nc[nH]c1/N=N/N(C)C (configuration not stated) = ?
OUT: > 100 µM (inactive)

IN: Notebook entry, SK-MEL-28 assay: GI50 of O=C1C=C2CC[C@H]3[C@@H]4CC[C@H](OC(=O)c5cccc6cc7ccccc7nc56)[C@H]4CC[C@@H]3[C@H]2CC1 = ?
OUT: > 100 µM (inactive)

IN: Notebook entry, SK-MEL-28 assay: GI50 of O=C(Nc1ccccc1)N1C(c2ccccc2)=N[C@@H](c2ccccc2)[C@@H]1c1ccccc1 = ?
OUT: 15.6 µM (inactive)

IN: Notebook entry, SK-MEL-28 assay: GI50 of Cc1nc2ccc(/N=N/N(C)C)cc2[nH]1 = ?
OUT: > 100 µM (inactive)

IN: Notebook entry, SK-MEL-28 assay: GI50 of ClCCCN1CCCCC1CCl (configuration not stated) = ?
OUT: > 100 µM (inactive)

IN: Notebook entry, SK-MEL-28 assay: GI50 of CC(O)C1OC(n2ccc(=O)[nH]c2=O)CC1n1cncn1 (configuration not stated) = ?
OUT: > 100 µM (inactive)

IN: Notebook entry, SK-MEL-28 assay: GI50 of O=C(Cn1nc(Br)c(Br)c1Br)c1ccccc1 = ?
OUT: 37.2 µM (inactive)

IN: Notebook entry, SK-MEL-28 assay: GI50 of Nc1nc(SCC(=O)c2ccccc2)c2[nH]cnc2n1 = ?
OUT: > 100 µM (inactive)

IN: Notebook entry, SK-MEL-28 assay: GI50 of C1=C(c2ccccc2)SC=C(c2ccccc2)S1 = ?
OUT: 49 µM (inactive)

IN: Notebook entry, SK-MEL-28 assay: GI50 of O=C(NC1CCN(Cc2ccccc2)CC1)c1ccc(I)cc1 = ?
OUT: 63.2 µM (inactive)

====

Tested on: RPMI-8226
protocolDescription: NCI tumour cell line growth inhibition, 48 h
Active and inactive are the calls of the source. Rule as the data show it: active = GI50 up to about 1.1 µM and inactive = higher.
Field: GI50. Provide a value for each of the compounds that follow.

IN: Which GI50 value belongs to C[C@]12CC[C@H](O)CC1=CC[C@@H]1C2CC[C@]2(C)Nc3c(cnn3-c3ccccc3)CC12 (some centres undefined) ?
OUT: 0.361 µM (active)

IN: Which GI50 value belongs to COc1cccc(C(C#N)NC23CC4CC(CC(C4)C2)C3)c1 (centres undefined) ?
OUT: > 100 µM (inactive)

IN: Which GI50 value belongs to Cc1c2ccncc2c(C)c2c1[nH]c1ccc(OC(C)(C)C)cc12 ?
OUT: 2.08 µM (inactive)

IN: Which GI50 value belongs to CC(=O)OC1C2CCC3C(C)(O)C4CC(O)C(C)(C)C4(O)C(O)CC13CC2(C)O (centres undefined) ?
OUT: > 100 µM (inactive)

IN: Which GI50 value belongs to O=[N+]([O-])/C(Cl)=C(\NCCN/C(C(Cl)=C(Cl)Cl)=C(/Cl)[N+](=O)[O-])C(Cl)=C(Cl)Cl ?
OUT: 17.7 µM (inactive)

IN: Which GI50 value belongs to COC(=O)C12Oc3ccc(-c4ccc5c(c4O)C(O)=C4C(=O)CC(C)C(O)C4(C(=O)OC)O5)c(O)c3C(O)=C1C(=O)CC(C)C2O (centres undefined) ?
OUT: 0.0494 µM (active)

IN: Which GI50 value belongs to Cc1ccc(-c2cn3c(nc4ccccc43)c(C)n2)cc1 ?
OUT: 30.7 µM (inactive)

IN: Which GI50 value belongs to CCCCc1c2c(nc3c1CCC/C3=C\c1ccccc1)C(=O)C(CN(C)C)CC2 (centres undefined) ?
OUT: 4.17 µM (inactive)

IN: Which GI50 value belongs to O=C(/N=N/c1cccc(Cl)c1)NNc1cccc(Cl)c1 ?
OUT: 8.36 µM (inactive)

====

Test system: TK-10
protocolDescription: NCI tumour cell line growth inhibition, 48 h
Active and inactive are the calls of the source. Rule as the data show it: active = GI50 up to about 1.1 µM and inactive = higher.
Field: GI50. Provide a value for each of the molecules that follow.

IN: Which GI50 value belongs to CCCCCCCCCCCCCCCCOP(=O)(O)OP(=O)(O)OCC1OC(n2ccc(N)nc2=O)C(O)C1O (stereo unspecified) ?
OUT: > 100 µM (inactive)

IN: Which GI50 value belongs to CC(O)C1OC(O)C2OC(C)(C)OC12 (stereo unspecified) ?
OUT: > 100 µM (inactive)

IN: Which GI50 value belongs to COC(=O)C1CC2(CC3=C1CCCC3)OCCO2 (stereo unspecified) ?
OUT: > 100 µM (inactive)

IN: Which GI50 value belongs to Cc1cc(C)c(NC(=O)/C=C/c2ccccc2)c(C)c1 ?
OUT: > 100 µM (inactive)

IN: Which GI50 value belongs to CCc1ccc(Cc2ccc(CC)c(NC(=O)C(=O)Cc3nc4ccccc4nc3C)c2CC)c(CC)c1NC(=O)C(=O)Cc1nc2ccccc2nc1C ?
OUT: > 100 µM (inactive)

IN: Which GI50 value belongs to CCCCc1ccc(Nc2ncc3ncn(COCCO)c3n2)cc1 ?
OUT: 37.8 µM (inactive)

====

Field: GI50. Provide a value for each of the molecules that follow.
System: SK-MEL-2
protocolDescription: NCI tumour cell line growth inhibition, 48 h
Activity calls are given as the source filed them. Rule as the data show it: active = GI50 up to about 1.1 µM and inactive = higher.

IN: Notebook entry, SK-MEL-2 assay: GI50 of CCOP(=O)(OCC)C(C(=O)OC)C(=O)C(=O)Nc1ccc(Cl)cc1Cl (stereo not given) = ?
OUT: > 100 µM (inactive)

IN: Notebook entry, SK-MEL-2 assay: GI50 of O=C1N[C@@H]2O[C@H](CNC(=O)c3cc(Br)c[nH]3)C[C@]2(O)N1.O=C1N[C@H]2O[C@H](CNC(=O)c3cc(Br)c[nH]3)C[C@@]2(O)N1 = ?
OUT: > 100 µM (inactive)

IN: Notebook entry, SK-MEL-2 assay: GI50 of COc1cc(=O)n2c3ccccc3n(C)c2c1C#N = ?
OUT: > 100 µM (inactive)

IN: Notebook entry, SK-MEL-2 assay: GI50 of CN(C)CC/C(=N\Nc1ccc([N+](=O)[O-])cc1)c1ccccc1 = ?
OUT: 12.9 µM (inactive)

IN: Notebook entry, SK-MEL-2 assay: GI50 of O=C1CCCCC12CCC/C2=N\O (stereo not given) = ?
OUT: > 100 µM (inactive)

IN: Notebook entry, SK-MEL-2 assay: GI50 of CCOC(=O)c1ccc(N2C(=O)/C(=C\OC)c3ccccc3C2=O)cc1 = ?
OUT: 23 µM (inactive)

IN: Notebook entry, SK-MEL-2 assay: GI50 of CCOC(=O)COc1ccc(/C=C/C(=O)c2ccc(OC)cc2)cc1 = ?
OUT: 27.7 µM (inactive)

IN: Notebook entry, SK-MEL-2 assay: GI50 of CCOC(=O)C1=C(c2ccccc2)N(C(C)=O)Cc2ccccc21 = ?
OUT: 17.5 µM (inactive)

IN: Notebook entry, SK-MEL-2 assay: GI50 of Cc1ccc(N(C)S(=O)(=O)c2ccccc2[N+](=O)[O-])cc1 = ?
OUT: 30.8 µM (inactive)

IN: Notebook entry, SK-MEL-2 assay: GI50 of Nc1ccc(C(=O)O)cc1.Nc1nc(N)c2nc[nH]c2n1 = ?
OUT: 22.9 µM (inactive)
